Test: binders of probe aHhip on microarray, primary screen, stem cell growth factor project, biochemical, small-molecule microarray, fluorescence 635/667 (AID 1087);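 also: score merges spot fluorescence at 667nm with spot signal to noise ratio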
Settings: higher = more signal
Please respond with reported composite z-score for every item in the list.
Give bare numbers.

[[record]]
compound = "CC(=O)OC[C@H]1O[C@H](CC=NOC[C@@H](O)COCc2ccco2)C=C[C@@H]1OC(C)=O"
assay_readout = "composite z-score"
observed_result = 0.212

[[record]]
compound = "CO[C@H]1COC(=O)CC=C[C@H](C)[C@H](OC)COC(=O)[C@@H](C)NC(=O)CC=C[C@@H]1C"
assay_readout = "composite z-score"
observed_result = 0.172

[[record]]
compound = "CC(C)CON=C1C[C@@H](O)[C@@H](O)[C@@H]2[C@@H]3C(=O)N(C(C)(C)C)C(=O)[C@@H]3CC[C@@H]12"
assay_readout = "composite z-score"
observed_result = -0.303

[[record]]
compound = "COC(=O)[C@H](C)NC(=O)CCC1CC(OC(=O)NCCc2ccc(F)cc2)CC2(CCCC(COC(=O)NCCc3ccccc3OC)O2)O1 (some centres not stated)"
assay_readout = "composite z-score"
observed_result = -0.361

[[record]]
compound = "COCOc1ccc(Br)cc1C(=O)C=Cc1ccc2c(c1)OCO2"
assay_readout = "composite z-score"
observed_result = -0.226

[[record]]
compound = "C[C@]12CCC3c4ccc(OCC5CO5)cc4CCC3C1CC[C@@H]2O (some centres not stated)"
assay_readout = "composite z-score"
observed_result = -0.0994


// switching to the query compound
Lab note: C[C@@H](c1ccccc1)N1C(=O)[C@H]2[C@H]3[C@H](O)[C@H](O)CC(=NNC(=O)OCc4ccccc4)[C@@H]3CC[C@H]2C1=O gave composite z-score of 0.161

====

System: Plasmodium falciparum Sir2 (PF13_0152, Sir2A)
Test: pfSir2 binders on small-molecule microarrays, primary screen, biochemical, small-molecule microarray, 635 nm fluorescence (AID 1098);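 also: score merges spot fluorescence intensity with its signal-to-noise ratio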
Conditions: small-molecule microarray binding, fluorescence 635 nm; higher = more signal
Assay Readout: composite z-score
Give bare numbers.

[[record]]
compound = "CCOC(=O)[C@H](Cc1ccccc1)NC(=O)CCC1CC(OC(=O)NCc2cccc3ccccc23)CC2(CCCC(COC(=O)NCCc3ccccc3OC)O2)O1 (some centres undefined)"
assay_readout = "composite z-score"
observed_result = 0.405

[[record]]
compound = "O=C1[C@H]2[C@H]3[C@H](O)[C@H](O)CC(=NOC[C@@H](O)COCc4ccco4)[C@@H]3CC[C@H]2C(=O)N1Cc1ccc2c(c1)OCO2"
assay_readout = "composite z-score"
observed_result = 0.867

[[record]]
compound = "CCN1C(=O)[C@H]2[C@H]3[C@H](O)[C@H](O)CC(=NO[C@@H]4O[C@H](CO)[C@@H](O)[C@H](O)[C@H]4O)[C@H]3CC[C@H]2C1=O"
assay_readout = "composite z-score"
observed_result = 0.0675

[[record]]
compound = "C=CC[C@@H]1C=C[C@H](ON=CC[C@@H]2C=C[C@H](OC(C)=O)[C@@H](COC(C)=O)O2)[C@@H](CO)O1"
assay_readout = "composite z-score"
observed_result = 1.01

[[record]]
compound = "CC(=O)OC[C@H]1O[C@@H](ON=C(C)CCC(=O)OC[C@H]2O[C@H](C#Cc3ccccc3)C=C[C@@H]2Oc2ccc(C)cc2)[C@H](OC(C)=O)[C@@H](OC(C)=O)[C@@H]1OC(C)=O"
assay_readout = "composite z-score"
observed_result = 0.888


Batch request: composite z-score per item, same order as input.
1. C[C@]12CCC3c4ccc(OCC5CO5)cc4CCC3C1CC[C@@H]2O (some centres undefined)
2. CC(CCN1CCc2nc(-c3ccccc3)c(-c3ccccc3)cc2C1)=NO[C@@H](C)c1cc(-c2c(C)cc(C)cc2C)no1
3. O=C1[C@H]2[C@H]3[C@H](O)[C@H](O)CC(=NOC[C@@H](O)COCc4ccco4)[C@@H]3CC[C@H]2C(=O)N1Cc1ccccc1

Given back:
0.728
0.655
-0.422

Return reported composite z-score values for all items listed beneath this line.
1. CCOC(=O)CCN1C(=O)[C@H]2[C@H]3[C@H](O)[C@H](O)CC(=NO[C@@H]4O[C@H](CO)[C@@H](O)[C@H](O)[C@H]4O)[C@H]3CC[C@H]2C1=O
2. O=C1[C@H]2CCn3c(=O)n(-c4ccccc4)c(=O)n3[C@H]2[C@H](O)[C@@H]2O[C@H]12
3. CC(C)(C)N1C(=O)[C@H]2[C@H]3[C@H](O)[C@H](O)CC(=NNC(=O)OCc4ccccc4)[C@@H]3CC[C@H]2C1=O
4. CC(=O)OC[C@H]1O[C@H](CC=NOC[C@@H](O)[C@H]2O[C@@H]3OC(C)(C)O[C@@H]3[C@H]2O)C=C[C@@H]1OC(C)=O
5. COc1ccc(COC(=O)NN=C2C[C@@H](O)[C@@H](O)[C@@H]3[C@@H]4C(=O)N(Cc5ccccc5)C(=O)[C@@H]4CC[C@@H]23)cc1

Given back:
1. 0.29
2. 0.784
3. -0.106
4. 0.8
5. 0.0233

COC(=O)CC=C[C@@H](C)[C@@H](C=NOC[C@@H](C)[C@H](OCc1ccccc1)C(C)C)OC has a reported composite z-score of 0.161
